Target: T1, Recombinant soluble extracellular domain of cynomolgus monkey MerTK (cynomolgus monkey, UniProt Q12866 21-505 (human entry))
T1 construct: SPR analyte; also called cMerTK; Cynomolgus MerTK
T1 chain: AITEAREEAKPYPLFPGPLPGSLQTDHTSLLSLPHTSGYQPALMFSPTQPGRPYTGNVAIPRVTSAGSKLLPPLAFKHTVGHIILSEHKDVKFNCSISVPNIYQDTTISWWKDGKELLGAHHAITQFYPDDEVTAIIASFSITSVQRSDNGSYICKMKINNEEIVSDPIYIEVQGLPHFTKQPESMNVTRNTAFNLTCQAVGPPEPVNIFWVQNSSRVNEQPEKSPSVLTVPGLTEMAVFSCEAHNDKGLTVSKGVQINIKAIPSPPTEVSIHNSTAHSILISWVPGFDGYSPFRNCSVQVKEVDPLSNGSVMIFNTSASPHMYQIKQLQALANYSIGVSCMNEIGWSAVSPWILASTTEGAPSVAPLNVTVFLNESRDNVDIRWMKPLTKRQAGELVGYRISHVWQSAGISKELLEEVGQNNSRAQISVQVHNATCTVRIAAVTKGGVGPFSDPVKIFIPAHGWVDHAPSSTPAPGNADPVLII
Assay: SPR, mAb captured, soluble MerTK ECD as analyte, 37 C
Property measured: koff (s⁻¹)
Give a bare numeral; the unit s⁻¹ is implied.

Known results for binders:
Binder	Property measured	Numeric value
HuMAb 4K10 (antibody, human IgG1, kappa, V domains shown, Human anti-hMerTK mAb, Bin 3) VH: QVQLQQWGAGLLKPSETLSLTCAVYGGSFSGYYWSWLRQPPGKGLEWIGEISHSGSTNYNPSLKSRVTISVDTSKNQFSLKLSSVTAADTAVYYCARALSRYWYFDLWGRGTLVTVSS VL: EIVLTQSPATLSLSPGERATLSCRASQSASNYLAWYQQKPGQAPRLLIYDASNRATGIPARFSGSGSGTDFTLTISSLEPEDFAVYYCYQRSQWPISFGQGTRLEIKR	koff	0.00379
Humanized MAb 2L105 (antibody, human IgG1, lambda, V domains shown, Humanized variant of moMAb 2D9, Bin 2) VH: QVTLKESGPVLVKPTETLTLTCTVSGISLSSFAISWIRQPPGKALEWLAVIWTGGGTDYNSALKSRLTISKDTSKSQVVLTMTNMDPVDTATYYCASHWYLDVWGQGTTVTVSS VL: QTVVTQEPSFSVSPGGTVTLTCRSSTGAVSTSNYANWVQQTPGQAPRGLIGGANSRAPGIPDRFSGSILGNKAALTITGAQADDESDYYCALWFSNHWVFGGGTKLTVLG	koff	0.00151

Asked: Which value of koff has been reported for HuMAb 25J80 (antibody, human IgG1, kappa, V domains shown, Human anti-hMerTK mAb, Bin 2, derived from HuMAb 25B10 by optimization) VH: QVQLVQSGAEVKKPGASVKVSCKTSGRTFIRYYMHWVRQAPGQGLEWMGIIWPNGDQTTYAQKFQGRVTMTRDTSTSTVYMELSSLRSEDTAVYYCATTYKYAMDVWGQGTTVTVSS VL: EIVLTQSPGTLSLSPGERATLSCRASQSVRSNYLAWYQQKPGQAPRLLIYGASSRATGIPDRFSGSGSGTDFTLTISRLEPEDFAVYYCQQYESPPRTFGQGTKVEIKR in the records?
Given back: 0.00124
